Tested on: 156681-154-R-J1-PDC complex spheroid viability;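 also: spheroids exposed to the agents for seven days; 100% = DMSO vehicle control viability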
procedure.details: Anticancer human tumor 156681-154-R-J1-PDC patient-derived melanoma cell line growth inhibition [CLK]
condition.set: second compound 0.316 µM; first compound 0.00949 µM; hits give low values
experimental.endpoint: viability, T/C (%)

NC(=O)C(=Cn1cnc(-c2cc(C(F)(F)F)cc(C(F)(F)F)c2)n1)c1cncnc1 + CNC(=O)c1ccc(Nc2nc(OC3CCCC3)c3c(-c4ccc5nc(C)oc5c4)c[nH]c3n2)c(OC)c1
52.4
NC(=O)C(=Cn1cnc(-c2cc(C(F)(F)F)cc(C(F)(F)F)c2)n1)c1cncnc1 + CN1CCN(c2cc(C(=O)Nc3cc4cc(-c5cnn(C)c5)ccc4cn3)ccn2)CC1
10.8
CC(C)CC(NC(=O)C(Cc1ccccc1)NC(=O)c1cnccn1)B(O)O (stereo unspecified) + CN1CCN(c2cc(C(=O)Nc3cc4cc(-c5cnn(C)c5)ccc4cn3)ccn2)CC1
0.66
C=CC(=O)Nc1cc(Nc2nccc(-c3cn(C)c4ccccc34)n2)c(OC)cc1N(C)CCN(C)C + CN1CCN(c2cc(C(=O)Nc3cc4cc(-c5cnn(C)c5)ccc4cn3)ccn2)CC1
23.4
C=CC(=O)Nc1cc(Nc2nccc(-c3cn(C)c4ccccc34)n2)c(OC)cc1N(C)CCN(C)C + CNC(=O)c1ccc(Nc2nc(OC3CCCC3)c3c(-c4ccc5nc(C)oc5c4)c[nH]c3n2)c(OC)c1
83.1
CC(C)CC(NC(=O)C(Cc1ccccc1)NC(=O)c1cnccn1)B(O)O (stereo unspecified) + CNC(=O)c1ccc(Nc2nc(OC3CCCC3)c3c(-c4ccc5nc(C)oc5c4)c[nH]c3n2)c(OC)c1
0.24
